The reported measurements were obtained from patent US11492345B2.

- Measured on: human Nav1.6 (hNav1.6) (Homo sapiens, UniProt Q9UQD0)
- Construct: expressed in transfected cells; host or cells: HEK-293 (G418 selection)
- Sequence (Q9UQD0 whole entry): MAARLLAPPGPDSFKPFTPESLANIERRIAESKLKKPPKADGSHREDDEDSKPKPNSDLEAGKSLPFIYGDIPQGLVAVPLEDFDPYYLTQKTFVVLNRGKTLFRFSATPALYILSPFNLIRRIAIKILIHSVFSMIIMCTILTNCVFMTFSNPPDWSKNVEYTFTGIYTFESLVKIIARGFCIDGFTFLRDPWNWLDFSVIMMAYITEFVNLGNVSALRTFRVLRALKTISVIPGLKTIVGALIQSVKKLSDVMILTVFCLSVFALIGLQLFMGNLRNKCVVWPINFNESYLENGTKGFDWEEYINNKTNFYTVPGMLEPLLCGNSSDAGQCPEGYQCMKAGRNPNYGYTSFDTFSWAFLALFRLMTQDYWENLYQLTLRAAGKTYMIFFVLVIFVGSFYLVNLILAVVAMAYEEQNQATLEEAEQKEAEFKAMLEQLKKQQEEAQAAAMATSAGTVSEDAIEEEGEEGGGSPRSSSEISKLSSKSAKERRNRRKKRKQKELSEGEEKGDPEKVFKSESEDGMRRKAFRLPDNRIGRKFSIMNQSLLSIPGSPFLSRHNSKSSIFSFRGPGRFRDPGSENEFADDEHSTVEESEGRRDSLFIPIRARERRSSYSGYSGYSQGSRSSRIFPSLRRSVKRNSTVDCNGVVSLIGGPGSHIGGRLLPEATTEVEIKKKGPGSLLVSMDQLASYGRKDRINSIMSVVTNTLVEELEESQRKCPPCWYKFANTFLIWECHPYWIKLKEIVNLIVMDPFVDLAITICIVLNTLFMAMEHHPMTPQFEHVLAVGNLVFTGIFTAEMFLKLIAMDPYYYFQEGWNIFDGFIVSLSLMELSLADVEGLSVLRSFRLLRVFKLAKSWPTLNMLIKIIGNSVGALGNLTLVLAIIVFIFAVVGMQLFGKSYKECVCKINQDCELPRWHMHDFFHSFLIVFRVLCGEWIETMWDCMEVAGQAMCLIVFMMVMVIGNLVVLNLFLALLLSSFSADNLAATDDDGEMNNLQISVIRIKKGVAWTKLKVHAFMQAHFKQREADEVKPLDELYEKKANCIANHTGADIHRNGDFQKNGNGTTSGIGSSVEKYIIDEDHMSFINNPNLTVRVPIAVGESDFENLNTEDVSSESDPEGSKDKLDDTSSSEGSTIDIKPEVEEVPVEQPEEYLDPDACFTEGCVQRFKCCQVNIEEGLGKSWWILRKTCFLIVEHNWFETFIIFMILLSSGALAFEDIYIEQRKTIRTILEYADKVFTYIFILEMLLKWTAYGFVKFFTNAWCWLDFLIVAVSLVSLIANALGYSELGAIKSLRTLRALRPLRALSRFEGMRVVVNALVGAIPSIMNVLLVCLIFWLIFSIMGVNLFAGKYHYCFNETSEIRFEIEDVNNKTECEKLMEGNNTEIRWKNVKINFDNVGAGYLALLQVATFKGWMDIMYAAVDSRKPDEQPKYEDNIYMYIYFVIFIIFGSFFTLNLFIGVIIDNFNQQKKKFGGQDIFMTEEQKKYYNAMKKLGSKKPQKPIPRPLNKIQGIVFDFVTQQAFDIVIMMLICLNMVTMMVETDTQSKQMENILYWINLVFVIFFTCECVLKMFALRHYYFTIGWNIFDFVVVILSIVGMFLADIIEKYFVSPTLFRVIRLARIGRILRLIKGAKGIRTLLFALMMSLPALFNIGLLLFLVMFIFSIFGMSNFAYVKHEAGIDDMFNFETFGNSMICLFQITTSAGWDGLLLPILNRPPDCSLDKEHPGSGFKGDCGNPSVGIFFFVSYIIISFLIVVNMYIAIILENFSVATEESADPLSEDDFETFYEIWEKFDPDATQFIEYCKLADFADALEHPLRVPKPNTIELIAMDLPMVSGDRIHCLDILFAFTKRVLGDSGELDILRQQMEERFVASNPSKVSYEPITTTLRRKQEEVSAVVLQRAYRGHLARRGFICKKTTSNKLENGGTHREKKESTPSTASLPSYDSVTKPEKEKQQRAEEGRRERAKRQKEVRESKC
- Experimental protocol: Modulation of late sodium current (INaL), PatchXpress electrophysiology
- Format: cell-based
- Condition summary: HEK293; 1 μM compound; HEK-293 cells expressing recombinant human Nav channel; late current evoked by 300 nM ATX-II; steady-state inhibition; read-out: INaL v1.6 (1 μM, % Inhibition)
- Description: Functional characterization of exemplary compounds to modulate INaL expressed by the Nav1.6 voltage-gated sodium channel was accomplished using the PatchXpress™ high throughput electrophysiology platform (Molecular Devices, Sunnyvale, Calif.). […] INaL amplitude and stability were determined by analyzing the mean current amplitude over the final 20 ms of the test pulse. […]
Endpoint: inhibition at 1 µM

Study these solved cases before continuing.
[
  {
    "Compound": "O=C(Cn1c(=O)oc2ccc(-c3ccc(OC(F)F)cc3)cc21)N1CCCC1 [Compound 148]",
    "inhibition at 1 µM": "< 30%"
  },
  {
    "Compound": "O=c1oc2ccc(-c3ccc(OC(F)(F)F)cc3)nc2n1CC(F)F [Compound 86]",
    "inhibition at 1 µM": "> 70%"
  },
  {
    "Compound": "O=c1oc2ccc(-c3ccc(OC(F)(F)F)cc3)nc2n1CCc1cncnc1 [Compound 124]",
    "inhibition at 1 µM": "> 70%"
  }
]

What the record says about Cn1ncnc1Cn1c(=O)oc2ccc(-c3ccc(OC(F)(F)F)cc3)nc21 [Compound 164] : inhibition at 1 µM is 30 to 70%

Form field inhibition at 1 µM, entry O=C(Cn1c(=O)oc2ccc(-c3cnc(OCC(F)(F)F)c(F)c3)nc21)N1CCCC1 [Compound 137] : < 30%

For record O=c1[nH]c2cc(-c3ccc(OC(F)(F)F)cc3)ccc2o1 [Compound 5] the listed inhibition at 1 µM is > 70%

For O=C(Cn1c(=O)oc2ccc(-c3ccc(OC(F)(F)F)cc3)cc21)N1CCCC1 [Compound 17] the compound record lists inhibition at 1 µM as 30 to 70%

Record O=c1oc2ccc(-c3ccc(OC(F)(F)F)cc3)nc2n1Cc1cncnc1 [Compound 103] . Reported inhibition at 1 µM: > 70%

// inhibition at 1 µM value for O=C1CCCN1CCCn1c(=O)oc2ccc(-c3ccc(OC(F)(F)F)cc3)cc21 [Compound 30] : 30 to 70%

----------
Collected inhibition at 1 µM values appear next to each entry.
- Measured on: human Nav1.6 (hNav1.6) (Homo sapiens, UniProt Q9UQD0)
- Construct: expressed in transfected cells; host or cells: HEK-293 (G418 selection)
- Experimental protocol: Modulation of late sodium current (INaL), PatchXpress electrophysiology
- Format: cell-based
- Condition summary: HEK293; 1 μM compound; HEK-293 cells expressing recombinant human Nav channel; late current evoked by 300 nM ATX-II; steady-state inhibition; read-out: INaL v1.6 (1 μM, % Inhibition)

See these solved cases before continuing.
[
  {
    "Compound": "CNC(=O)Cn1c(=O)oc2ccc(-c3ccc(OC(F)(F)F)cc3)cc21 [Compound 41]",
    "Measured on": "human Nav1.6 (hNav1.6) (Homo sapiens, UniProt Q9UQD0)",
    "inhibition at 1 µM": "< 30%"
  },
  {
    "Compound": "O=c1oc2ccc(-c3ccc(OC(F)(F)F)cc3)cc2n1CC(F)(F)F [Compound 2]",
    "Measured on": "human Nav1.6 (hNav1.6) (Homo sapiens, UniProt Q9UQD0)",
    "inhibition at 1 µM": "30 to 70%"
  },
  {
    "Compound": "Cc1noc(C)c1Cn1c(=O)oc2ccc(-c3ccc(OC(F)(F)F)cc3)nc21 [Compound 152]",
    "Measured on": "human Nav1.6 (hNav1.6) (Homo sapiens, UniProt Q9UQD0)",
    "inhibition at 1 µM": "< 30%"
  },
  {
    "Compound": "O=c1oc2ccc(-c3ccc(OC(F)(F)F)cc3)nc2n1C[C@H]1CCCOC1 (single isomer, unassigned) [Compound 66]",
    "Measured on": "human Nav1.6 (hNav1.6) (Homo sapiens, UniProt Q9UQD0)",
    "inhibition at 1 µM": "> 70%"
  },
  {
    "Compound": "Cc1n[nH]cc1Cn1c(=O)oc2ccc(-c3ccc(OC(F)(F)F)cc3)nc21 [Compound 167]",
    "Measured on": "human Nav1.6 (hNav1.6) (Homo sapiens, UniProt Q9UQD0)",
    "inhibition at 1 µM": "< 30%"
  },
  {
    "Compound": "Cn1c(=O)n(CC(F)(F)F)c2cc(-c3ccc(OC(F)(F)F)cc3)ccc21 [Compound 32]",
    "Measured on": "human Nav1.6 (hNav1.6) (Homo sapiens, UniProt Q9UQD0)",
    "inhibition at 1 µM": "30 to 70%"
  },
  {
    "Compound": "O=C(Cn1c(=O)oc2ccc(-c3ccc(OC(F)(F)F)cc3)nc21)N1CCCCC1 [Compound 119]",
    "Measured on": "human Nav1.6 (hNav1.6) (Homo sapiens, UniProt Q9UQD0)",
    "inhibition at 1 µM": "> 70%"
  },
  {
    "Compound": "CC(C(=O)N1CCCC1)n1c(=O)oc2ccc(-c3ccc(OC(F)(F)F)cc3)cc21 (stereo not drawn) [Compound 45]",
    "Measured on": "human Nav1.6 (hNav1.6) (Homo sapiens, UniProt Q9UQD0)",
    "inhibition at 1 µM": "< 30%"
  }
]

Recorded inhibition at 1 µM (compound Cc1nc(Cn2c(=O)oc3ccc(-c4ccc(OC(F)(F)F)cc4)nc32)no1 [Compound 162] ): > 70%

O=c1oc2ccc(-c3ccc(OC(F)(F)F)cc3)cc2n1Cc1ccncn1 [Compound 132] has a reported inhibition at 1 µM of > 70%

Item: O=C(Cn1c(=O)oc2ccc(-c3ccc(OC(F)(F)F)cc3)cc21)N1CC[C@@H](O)C1 [Compound 114] | inhibition at 1 µM: < 30%

Documented inhibition at 1 µM of CC(C)n1c(=O)oc2ccc(-c3ccc(OC(F)(F)F)cc3)nc21 [Compound 78] : > 70%

----------
- Measured on: human Nav1.6 (hNav1.6) (Homo sapiens, UniProt Q9UQD0)
- Construct: expressed in transfected cells; host or cells: HEK-293 (G418 selection)
- Experimental protocol: Modulation of late sodium current (INaL), PatchXpress electrophysiology
- Assay type: cell-based
- Condition summary: HEK293; 1 μM compound; HEK-293 cells expressing recombinant human Nav channel; late current evoked by 300 nM ATX-II; steady-state inhibition; read-out: INaL v1.6 (1 μM, % Inhibition)
- Experimental: Functional characterization of exemplary compounds to modulate INaL expressed by the Nav1.6 voltage-gated sodium channel was accomplished using the PatchXpress™ high throughput electrophysiology platform (Molecular Devices, Sunnyvale, Calif.). […] INaL amplitude and stability were determined by analyzing the mean current amplitude over the final 20 ms of the test pulse. […]
In this section we review reported inhibition at 1 µM values for a set of compounds.

The cases that follow already have their inhibition at 1 µM on record.
[
  {
    "Compound": "C[C@@H](O)CCn1c(=O)oc2ccc(-c3ccc(OC(F)(F)F)cc3)cc21",
    "Measured on": "human Nav1.6 (hNav1.6) (Homo sapiens, UniProt Q9UQD0)",
    "inhibition at 1 µM": "> 70%"
  },
  {
    "Compound": "O=C1CCCN1CCn1c(=O)oc2ccc(-c3ccc(OC(F)(F)F)cc3)nc21",
    "Measured on": "human Nav1.6 (hNav1.6) (Homo sapiens, UniProt Q9UQD0)",
    "inhibition at 1 µM": "< 30%"
  }
]

Data point: CCN(C)C(=O)Cn1c(=O)oc2ccc(-c3ccc(OC(F)(F)F)cc3)cc21 ; inhibition at 1 µM = 30 to 70%

----------
- Measured on: human Nav1.6 (hNav1.6) (Homo sapiens, UniProt Q9UQD0)
- Construct: expressed in transfected cells; host or cells: HEK-293 (G418 selection)
- Experimental protocol: Modulation of late sodium current (INaL), PatchXpress electrophysiology
- Format: cell-based
- Condition summary: HEK293; 1 μM compound; HEK-293 cells expressing recombinant human Nav channel; late current evoked by 300 nM ATX-II; steady-state inhibition; read-out: INaL v1.6 (1 μM, % Inhibition)
Consider the following compounds and their measured inhibition at 1 µM readings.

// solved cases for inhibition at 1 µM follow
[
  {
    "Compound": "Cn1c(=O)oc2ccc(-c3ccc(OC(F)(F)F)cc3)cc21 [Compound 10]",
    "Endpoint": "inhibition at 1 µM",
    "Test value": "> 70%"
  },
  {
    "Compound": "O=c1oc2ccc(-c3ccc(OC(F)(F)F)cc3)nc2n1CCCO [Compound 90]",
    "Endpoint": "inhibition at 1 µM",
    "Test value": "30 to 70%"
  },
  {
    "Compound": "O=c1oc2ccc(-c3ccc(OC(F)(F)F)cc3)cc2n1CC1CCOCC1 [Compound 56]",
    "Endpoint": "inhibition at 1 µM",
    "Test value": "> 70%"
  },
  {
    "Compound": "CC(=O)N1CCC[C@H]1Cn1c(=O)oc2ccc(-c3ccc(OC(F)(F)F)cc3)cc21 [Compound 111]",
    "Endpoint": "inhibition at 1 µM",
    "Test value": "30 to 70%"
  },
  {
    "Compound": "CCn1c(=O)oc2ccc(-c3ccc(OC(F)(F)F)cc3)nc21 [Compound 76]",
    "Endpoint": "inhibition at 1 µM",
    "Test value": "> 70%"
  },
  {
    "Compound": "O=c1oc2ccc(-c3ccc(OC(F)(F)F)cc3)nc2n1C[C@H]1CC1(F)F (single isomer, unassigned) [Compound 106]",
    "Endpoint": "inhibition at 1 µM",
    "Test value": "> 70%"
  }
]

// O=c1oc2ccc(-c3ccc(OC(F)(F)F)cc3)cc2n1C[C@H]1CCCO1 [Compound 105] : inhibition at 1 µM value = > 70%
